All figures here come from patent US20200123233A1.

- Study system: Rabies virus glycoprotein G, strain CVS-11 (Challenge Virus Standard-11, ATCC VR 959) (Rabies virus, strain CVS-11)
- Protocol text: cell-based or functional assay
Readout type: log10(CVS neutralizing antibody titre (RFFIT): IU/ml) (log10 of the value in IU/ml)
Scale: decimal log of CVS neutralizing antibody titre (RFFIT): IU/ml, CVS neutralizing antibody titre (RFFIT): IU/ml in IU/ml.

Binder | Measured result
213-E6 25GS 212-C12 (VHH) EVQLVESGGGLVQAGASLRLSCAASGSTLSRYGVGWFRQAPGKERELVASVDWSGSRTYYADSVKGRFTISRDNAKNTGYLQMNSLKPDDTAVYYCAADSSVVPGIEKYDDWGLGTQVTVSSGGGGSGGGGSGGGGSGGGGSGGGGSEVQLVESGGGLVQPGGSLRLSCAASGFTFGSSDMSWVRQAPGKGPEWVSGINSGGGRTLYADSVKGRFTISRDNAKNTLYLQMNSLKSEDTAVYYCATDLYGSSWYTDYWSQGTQVTVSS | 3.11
214-E8 5GS 212-C12 (VHH) EVQLVESGGGSVQAGGSLRLSCAASGGTFNPYVMAWFRQAPGNEREFVARIRWSGGDAYYDDSVKGRFAITRDAAKNTVHLQMNSLKPEDTAVYYCAAATYGYGSYTYGGSYDLWGQGTQVTVSSGGGGSEVQLVESGGGLVQPGGSLRLSCAASGFTFGSSDMSWVRQAPGKGPEWVSGINSGGGRTLYADSVKGRFTISRDNAKNTLYLQMNSLKSEDTAVYYCATDLYGSSWYTDYWSQGTQVTVSS | 2.23
214-E8 15GS 214-E8 (VHH) EVQLVESGGGSVQAGGSLRLSCAASGGTFNPYVMAWFRQAPGNEREFVARIRWSGGDAYYDDSVKGRFAITRDAAKNTVHLQMNSLKPEDTAVYYCAAATYGYGSYTYGGSYDLWGQGTQVTVSSGGGGSGGGGSGGGGSEVQLVESGGGSVQAGGSLRLSCAASGGTFNPYVMAWFRQAPGNEREFVARIRWSGGDAYYDDSVKGRFAITRDAAKNTVHLQMNSLKPEDTAVYYCAAATYGYGSYTYGGSYDLWGQGTQVTVSS | 2.66
213-E6 15GS 213-H7 (VHH) EVQLVESGGGLVQAGASLRLSCAASGSTLSRYGVGWFRQAPGKERELVASVDWSGSRTYYADSVKGRFTISRDNAKNTGYLQMNSLKPDDTAVYYCAADSSVVPGIEKYDDWGLGTQVTVSSGGGGSGGGGSGGGGSEVQLVESGGGLVQAGGSLRLSCAASGRTLSSYRMGWFRQAPGKEREFISTISWNGRSTYYADSVKGRFIFSEDNAKNTVYLQMNSLKPEDTAVYYCAAALIGGYYSDVDAWSYWGPGTQVTVSS | 3.58

Attention now turns to another entry.
Field request: log10(CVS neutralizing antibody titre (RFFIT): IU/ml) | item: 213-E6 25GS 213-E6 (VHH) EVQLVESGGGLVQAGASLRLSCAASGSTLSRYGVGWFRQAPGKERELVASVDWSGSRTYYADSVKGRFTISRDNAKNTGYLQMNSLKPDDTAVYYCAADSSVVPGIEKYDDWGLGTQVTVSSGGGGSGGGGSGGGGSGGGGSGGGGSEVQLVESGGGLVQAGASLRLSCAASGSTLSRYGVGWFRQAPGKERELVASVDWSGSRTYYADSVKGRFTISRDNAKNTGYLQMNSLKPDDTAVYYCAADSSVVPGIEKYDDWGLGTQVTVSS 1.32
